These entries and their values trace back to ChEMBL document CHEMBL1772969.

Tested on: Plasmodium falciparum
Assay: Antimalarial activity against chloroquine-sensitive Plasmodium falciparum D6 after 48 hrs by [3H]hypoxanthine incorporation assay
Assay type: functional, organism-based
endpoint_label: IC50 (nM)

[[record]]
mol = "CC[C@H]1OC(=O)[C@H](C)[C@@H](O[C@H]2C[C@@](C)(OC)[C@@H](O)[C@H](C)O2)[C@H](C)[C@@H](O[C@@H]2O[C@H](C)C[C@H](N(C)C)[C@H]2O)[C@](C)(O)C[C@@H](C)CN(CCCNC(=O)Nc2cccc3ccccc23)[C@H](C)[C@@H](O)[C@]1(C)O"
measured_result = 215

[[record]]
mol = "CC[C@H]1OC(=O)[C@H](C)[C@@H](O[C@H]2C[C@@](C)(OC)[C@@H](O)[C@H](C)O2)[C@H](C)[C@@H](O[C@@H]2O[C@H](C)C[C@H](N(C)C)[C@H]2O)[C@](C)(O)C[C@@H](C)CN(CCNC(=S)Nc2cccc3ccccc23)[C@H](C)[C@@H](O)[C@]1(C)O"
measured_result = 225

